Please provide measured EC50 for the entries that follow.
- Target: T1, cynomolgus monkey FcRn (cynomolgus monkey, UniProt Q8SPV9 24-297; Q8SPW0 21-119, limits assumed)
- T1 construct: also called Cynomolgus FcRn
- T1 sequence (Q8SPV9 24-297 limits assumed, chain 1 of 2): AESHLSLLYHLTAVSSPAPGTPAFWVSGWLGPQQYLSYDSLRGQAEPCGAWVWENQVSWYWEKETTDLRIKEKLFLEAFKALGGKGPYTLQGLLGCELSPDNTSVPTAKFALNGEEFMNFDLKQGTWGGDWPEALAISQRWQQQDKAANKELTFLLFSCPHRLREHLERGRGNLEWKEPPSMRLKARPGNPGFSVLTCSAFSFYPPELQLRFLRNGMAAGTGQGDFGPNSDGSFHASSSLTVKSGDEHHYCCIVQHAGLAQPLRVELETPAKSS
- T1 sequence (Q8SPW0 21-119 limits assumed, chain 2 of 2): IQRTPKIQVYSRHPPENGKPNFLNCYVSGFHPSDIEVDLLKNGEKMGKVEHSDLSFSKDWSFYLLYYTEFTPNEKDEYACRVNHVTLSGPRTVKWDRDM
- Procedure Summary: SPR competition pH 5.5
Kindly answer with a numeric value in nM, unit omitted.

Recorded EC50 of variant Fc-fragment Fc-5-51 (other, soluble elsewhere) EPKSCDKTHTCPPCPAPELLGGPSVFLFPPKPKDTLMISRTPEVTCVVVDVSHEDPEVKFNWYVDGVEVHNAKTKPREEQYNSTYRVVSVLTVLHQDWLNGKEYKCKVSNKALPAPIEKTISKAKGQPREPQVYTLPPSRDELTKNQVSLTCLVKGFYPSDIAVEWESNGGCHLPFAVCGGGQPENNYKTTPPVLDSDGSFFLYSKLTVDKSRWQQGNVFSCSVMHEALHNHYTQKSLSLSPGK , please.
21

What would you report for variant Fc-fragment Fc-5-99 (other, library L5 isolate) EPKSCDKTHTCPPCPAPELLGGPSVFLFPPKPKDTLMISRTPEVTCVVVDVSHEDPEVKFNWYVDGVEVHNAKTKPREEQYNSTYRVVSVLTVLHQDWLNGKEYKCKVSNKALPAPIEKTISKAKGQPREPQVYTLPPSRDELTKNQVSLTCLVKGFYPSDIAVEWESNGGCYITQKLCGGGQPENNYKTTPPVLDSDGSFFLYSKLTVDKSRWQQGNVFSCSVMHEALHNHYTQKSLSLSPGK ?
16
